Source: paper PMC5248591

# assay method text: SAD study: plasma and urine pharmacokinetics after a single oral dose
# Assay type: in vivo, human
# condition details: human, plasma, po, 300 mg
value kind: Cmax (ng/mL)
Give bare numbers, in ng/mL.

// query Sample CC(=O)O.NC(=O)c1cnc(N[C@@H]2CCCC[C@@H]2N)nc1Nc1cccc(-n2nccn2)c1 [PRT062607] — what was its Cmax?
// result 558

###

# Type: in vivo, human
# condition details: human, plasma, oral, 110 mg
value kind: AUC
# output: number + unit

// query Sample CC(=O)O.NC(=O)c1cnc(N[C@@H]2CCCC[C@@H]2N)nc1Nc1cccc(-n2nccn2)c1 [PRT062607] — what was its AUC?
// result 8490 ng·h/mL
